# assay target: Steryl-sulfatase (Homo sapiens)
# assay explanation: Inhibition of STS (unknown origin) expressed in HEK-293 cells assessed as transformation of [3H]-E1S into E1 at 1 uM by […]
# Type: cell-based
# assay setup: HEK293
observed property: inhibition (%)

1) CCN(Cc1ccc(Br)cc1)c1cccc(C(=O)N2CCc3ccc(OS(N)(=O)=O)cc3C2)c1 = 84.5
2) NS(=O)(=O)Oc1ccc2c(c1)CN(C(=O)c1ccc(N(CCO)Cc3ccccc3)cc1)CC2 = 78
3) NS(=O)(=O)Oc1ccc2c(c1)CN(C(=O)c1ccc(N3CCN(Cc4ccccc4)CC3)cc1)CC2 = 75.8
